Recorded glycan array binding signal (z-score) values for a group of binders are listed next.
Target: Gal(b1-4)GlcNAc(b1-6)[Gal(b1-4)GlcNAc(b1-3)]GalNAc
Assay: glycan array binding signal (z-score within array); higher = stronger binding
Settings: glycan notation: IUPAC condensed, linker removed
Only a selection was taken, and the strongest signals are over-represented in it overall.
Respond using a number only.

For orientation, consider the following solved cases.
DrGal9 (Danio rerio) (protein) MAFYQQPPYYNPRIPFSGPIQGGLQDGKSIIISGRVLPGANRFHVNLQCGSHSEANVALHFNPRYEDTDYVVNNSYLNRTWGSEERKYESPFAQGQTFTLQILVAQDKYKISTNGRHFMDYKHRIPFTQVDTVAVEGMVEVNSVAFQNPAGFIPPQAGYAPQYAVPPGCGFPAFPSAPNYTIPHKTVMNGGLHPGKNIVINGVVNPNAKSIIFNLCYRSGIAFHYNPRFDENVVVRNTNQMEKWGAEERFGGLPFHKGQPFQVTISCNPQHYNVFVNGKQEHTYKHRYTKLNDIDILEICGDLQLTSVQA	-0.007
Gal 9 (Homo sapiens), O00182 (protein) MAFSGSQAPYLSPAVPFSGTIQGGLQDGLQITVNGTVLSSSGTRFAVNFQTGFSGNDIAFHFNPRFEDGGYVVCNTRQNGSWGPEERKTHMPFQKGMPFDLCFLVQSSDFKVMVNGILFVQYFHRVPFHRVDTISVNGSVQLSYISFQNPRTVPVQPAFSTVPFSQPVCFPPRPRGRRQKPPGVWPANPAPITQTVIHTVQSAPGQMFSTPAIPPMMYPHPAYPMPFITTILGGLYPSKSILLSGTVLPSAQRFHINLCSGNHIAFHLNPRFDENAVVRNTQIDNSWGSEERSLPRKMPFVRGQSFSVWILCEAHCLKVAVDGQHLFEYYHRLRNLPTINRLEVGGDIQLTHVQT	-0.275

Attention now turns to another entry.
**Query** Need glycan array binding signal (z-score) of CPA (Cicer arietinum) (protein) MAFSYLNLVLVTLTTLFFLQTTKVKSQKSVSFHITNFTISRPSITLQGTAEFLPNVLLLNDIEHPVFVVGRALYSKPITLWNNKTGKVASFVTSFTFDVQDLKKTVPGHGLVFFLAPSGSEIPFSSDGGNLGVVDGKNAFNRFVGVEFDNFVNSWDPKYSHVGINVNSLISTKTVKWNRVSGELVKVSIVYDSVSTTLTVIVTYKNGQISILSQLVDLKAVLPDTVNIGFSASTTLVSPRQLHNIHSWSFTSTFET , thanks.
**Result** 3.6

The measured values listed here are drawn from the supplement of paper PMC8728848.
